Target sequence: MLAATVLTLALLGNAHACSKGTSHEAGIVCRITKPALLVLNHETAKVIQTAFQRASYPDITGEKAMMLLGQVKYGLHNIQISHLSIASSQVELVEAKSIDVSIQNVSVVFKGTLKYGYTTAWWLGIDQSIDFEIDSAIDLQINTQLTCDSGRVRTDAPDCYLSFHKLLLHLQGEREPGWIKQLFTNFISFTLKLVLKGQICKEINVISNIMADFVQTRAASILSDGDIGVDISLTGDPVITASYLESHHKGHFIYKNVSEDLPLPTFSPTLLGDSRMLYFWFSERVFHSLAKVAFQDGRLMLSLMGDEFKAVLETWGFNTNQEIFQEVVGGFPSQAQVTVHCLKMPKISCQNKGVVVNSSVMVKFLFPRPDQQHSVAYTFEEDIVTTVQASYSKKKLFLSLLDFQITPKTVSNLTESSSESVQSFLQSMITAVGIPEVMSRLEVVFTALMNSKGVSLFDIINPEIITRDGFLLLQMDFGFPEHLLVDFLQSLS
# Lookup of reported IC50 keyed by entry

>  <structureNotation>
Cc1ccccc1OCC(=O)Nc1ccc(-c2nc3cc(Cl)ccc3o2)cc1

>  <ltGtEq>
=

>  <IC50 / µM>
1.11

$$$$
>  <structureNotation>
N#Cc1cccc(OCC(=O)Nc2ccc(-c3nc4cc(Cl)ccc4o3)cc2)c1

>  <ltGtEq>
>

>  <IC50 / µM>
30

$$$$
>  <structureNotation>
O=C(COc1cccc([N+](=O)[O-])c1)Nc1ccc(-c2nc3cc(Cl)ccc3o2)cc1

>  <ltGtEq>
=

>  <IC50 / µM>
26.5

$$$$
>  <structureNotation>
N#Cc1ccc(OCC(=O)Nc2ccc(-c3nc4cc(Cl)ccc4o3)cc2)cc1

>  <ltGtEq>
>

>  <IC50 / µM>
30

$$$$
>  <structureNotation>
O=C(COc1ccc(C(F)(F)F)cc1)Nc1ccc(-c2nc3cc(Cl)ccc3o2)cc1

>  <ltGtEq>
=

>  <IC50 / µM>
0.81

$$$$
>  <structureNotation>
CCOCC(=O)Nc1ccc(-c2nc3cc(C#N)ccc3o2)cc1

>  <ltGtEq>
=

>  <IC50 / µM>
1.38

$$$$
>  <structureNotation>
O=C(COc1ccccc1[N+](=O)[O-])Nc1ccc(-c2nc3cc(Cl)ccc3o2)cc1

>  <ltGtEq>
=

>  <IC50 / µM>
4.4

$$$$
>  <structureNotation>
CC(OCC(=O)Nc1ccc(-c2nc3cc(C#N)ccc3o2)cc1)(C(F)(F)F)C(F)(F)F

>  <ltGtEq>
=

>  <IC50 / µM>
0.044

$$$$
>  <structureNotation>
O=C(CNCc1ccccc1)Nc1ccc(-c2nc3cc(Cl)ccc3o2)cc1

>  <ltGtEq>
=

>  <IC50 / µM>
18.1

$$$$
>  <structureNotation>
CC(C)OCCNc1ccc(-c2nc3cc(C#N)ccc3o2)cc1

>  <ltGtEq>
=

>  <IC50 / µM>
0.89

$$$$
>  <structureNotation>
O=C(COc1ccccc1C(F)(F)F)Nc1ccc(-c2nc3cc(Cl)ccc3o2)cc1

>  <ltGtEq>
=

>  <IC50 / µM>
6.39

$$$$
>  <structureNotation>
O=C(Nc1ccc(-c2nc3cc(Cl)ccc3o2)cc1)OCc1ccccc1

>  <ltGtEq>
>

>  <IC50 / µM>
30

$$$$
>  <structureNotation>
O=C(COc1ccccc1F)Nc1ccc(-c2nc3cc(Cl)ccc3o2)cc1

>  <ltGtEq>
>

>  <IC50 / µM>
30

$$$$
>  <structureNotation>
O=S(=O)(Cc1ccccc1)Nc1ccc(-c2nc3cc(Cl)ccc3o2)cc1

>  <ltGtEq>
>

>  <IC50 / µM>
30

$$$$
